- TGT: human CRTh2 (Homo sapiens)
- ASSAY_INFO: CRTh2 [3H]-PGD2 binding assay (filtration binding protocol; called SPA binding assay)
- Design: expressed in transfected cells; host or cells: CHO.K1 (Chinese Hamster Ovary) cells, membrane preparation
- PARTICULARS: competition with [3H]-PGD2 2.5 nM, CHO.K1-CRTh2 membranes
MEASUREMENT_NAME: Ki (nM)
Report as a plain number; the unit nM is understood.

Looking up Cc1c(CC(=O)O)c2cccnc2n1Cc1ccc(S(=O)(=O)N(C)C2CCCCC2)cc1 [Example 6] , I found its Ki recorded as 2

Looking up Cc1c(CC(=O)O)c2cccnc2n1Cc1ccc(S(=O)(=O)N2CCCC2)cc1 [Example 2] , I found its Ki recorded as 34

Looking up Cc1c(CC(=O)O)c2cccnc2n1Cc1ccc(S(=O)(=O)N2CCOCC2)cc1 [Example 1] , I found its Ki recorded as 30

====

- TGT: human CRTh2 (Homo sapiens, UniProt Q9Y5Y4)
- Sequence (Q9Y5Y4 whole entry): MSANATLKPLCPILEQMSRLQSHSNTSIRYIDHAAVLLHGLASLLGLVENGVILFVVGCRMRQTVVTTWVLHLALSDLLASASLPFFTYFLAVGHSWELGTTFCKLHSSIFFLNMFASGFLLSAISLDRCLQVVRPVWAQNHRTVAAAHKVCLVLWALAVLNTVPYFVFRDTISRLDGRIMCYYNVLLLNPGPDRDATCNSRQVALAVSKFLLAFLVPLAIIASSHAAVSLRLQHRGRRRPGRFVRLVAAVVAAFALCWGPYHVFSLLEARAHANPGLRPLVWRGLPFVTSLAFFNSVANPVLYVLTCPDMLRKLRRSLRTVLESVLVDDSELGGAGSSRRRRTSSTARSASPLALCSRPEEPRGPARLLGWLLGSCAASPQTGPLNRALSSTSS
- ASSAY_INFO: CRTH2 cAMP functional assay in CHO.K1-CRTh2 cells
- PARTICULARS: inhibition of PGD2-mediated attenuation of forskolin-induced cAMP accumulation
MEASUREMENT_NAME: IC50 (nM)
Report as a plain number; the unit nM is understood.

Looking up Cc1c(CC(=O)O)c2cccnc2n1Cc1ccc(S(=O)(=O)N2CCCCC2)cc1 , I found its IC50 recorded as 42

Looking up Cc1c(CC(=O)O)c2cccnc2n1Cc1ccc(S(=O)(=O)N(C)C2CCCCC2)cc1 , I found its IC50 recorded as 18

Looking up Cc1c(CC(=O)O)c2cccnc2n1Cc1ccc(S(=O)(=O)N2CCCC2)cc1 , I found its IC50 recorded as 83

Looking up Cc1c(CC(=O)O)c2cccnc2n1Cc1ccc(S(=O)(=O)N2CCOCC2)cc1 , I found its IC50 recorded as 60
